// reported %Inh per item
- System: WNK4
- condition-parameters: concentration: 1 μM,replicates: in singlicate; n = 1;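 further: KINOMEscan kinase panel screen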

[
  {
    "compound": "CC(C(=O)NC1CCN(c2ccnc(Nc3ccc(F)cc3)n2)C1)c1ccc(Cl)cc1 (stereo not drawn)",
    "%Inh [%]": 0
  },
  {
    "compound": "CS(=O)(=O)c1cccc(CNc2nc(Nc3ccc4c(c3)[C@@H]3C[C@@H]4CNC3=O)ncc2C(F)(F)F)c1",
    "%Inh [%]": 0
  },
  {
    "compound": "CSc1nccc(-c2c(-c3ccc(F)cc3)ncn2CCCN2CCOCC2)n1.Cl",
    "%Inh [%]": 0
  },
  {
    "compound": "CN(c1cccc(CNc2nc(Nc3ccc4c(c3)CC(=O)N4)ncc2C(F)(F)F)c1)S(C)(=O)=O",
    "%Inh [%]": 0
  },
  {
    "compound": "Cc1ccc(CC(=O)N2CCc3cc(-c4cn(C)c5ncnc(N)c45)ccc32)cc1",
    "%Inh [%]": 17
  },
  {
    "compound": "O=C1NCCc2[nH]c(-c3ccncc3)cc21",
    "%Inh [%]": 22
  },
  {
    "compound": "CCn1c(-c2nonc2N)nc2cncc(CNC3CCNCC3)c21.Cl",
    "%Inh [%]": 21
  },
  {
    "compound": "Cl.Nc1n[nH]c2cc(-c3ccccn3)ccc12",
    "%Inh [%]": 0
  },
  {
    "compound": "O=c1[nH]cc(-c2ccc(O)cc2)c2sc(-c3ccncc3)cc12",
    "%Inh [%]": 10
  }
]

###

// reported %Inh per item
- System: CLK1
- condition-parameters: concentration: 1 μM,replicates: in singlicate; n = 1

[
  {
    "compound": "NC(=O)c1ccc(-c2cc3ncnc(SCC(=O)O)c3s2)cc1",
    "measured-on": "CLK1",
    "%Inh": "82%"
  },
  {
    "compound": "Cn1ccc2ncnc(Oc3ccc(NC(=O)Nc4cncc(C(F)(F)F)c4)c(Cl)c3)c21",
    "measured-on": "CLK1",
    "%Inh": "0%"
  },
  {
    "compound": "Cn1ccc2ncnc(Oc3ccc(NC(=O)Nc4ccnc(C(F)(F)F)c4)c(Cl)c3)c21",
    "measured-on": "CLK1",
    "%Inh": "0%"
  },
  {
    "compound": "O=C(Nc1ccccc1)c1cccc(Oc2ccc3nccn3n2)c1",
    "measured-on": "CLK1",
    "%Inh": "0%"
  },
  {
    "compound": "CN(c1cccc(CNc2nc(Nc3ccc4c(c3)CC(=O)N4)ncc2C(F)(F)F)c1)S(C)(=O)=O",
    "measured-on": "CLK1",
    "%Inh": "63%"
  },
  {
    "compound": "CS(=O)(=O)c1cccc(CNc2nc(Nc3ccc4c(c3)[C@@H]3C[C@@H]4CNC3=O)ncc2C(F)(F)F)c1",
    "measured-on": "CLK1",
    "%Inh": "81%"
  },
  {
    "compound": "CS(=O)c1ccc(-c2coc3ccc(-c4n[nH]c(=O)o4)cc23)cc1 (stereo not drawn)",
    "measured-on": "CLK1",
    "%Inh": "20%"
  },
  {
    "compound": "CC(=O)c1c(-c2ccncc2)[nH]c(-c2ccncc2)c1C",
    "measured-on": "CLK1",
    "%Inh": "99.8%"
  },
  {
    "compound": "COc1cccc(C2=C(Nc3cccc(Cl)c3)C(=O)NC2=O)c1",
    "measured-on": "CLK1",
    "%Inh": "69%"
  },
  {
    "compound": "CC(=O)Nc1nc2cnc(Nc3cc(NC(=O)c4cccc(CC(C)(C)C#N)c4)ccc3C)nc2s1",
    "measured-on": "CLK1",
    "%Inh": "0%"
  },
  {
    "compound": "O=c1[nH]cc(-c2ccc(O)cc2)c2sc(-c3ccncc3)cc12",
    "measured-on": "CLK1",
    "%Inh": "95.7%"
  },
  {
    "compound": "Cc1cccc2c(-c3ccncc3)c(-c3ccc(F)cc3)nn12.Cl",
    "measured-on": "CLK1",
    "%Inh": "17%"
  },
  {
    "compound": "COc1cccc(OC)c1C(=O)Nc1cccc(-c2nn3ccccc3c2-c2ccnc(Nc3cccc(F)c3)n2)c1",
    "measured-on": "CLK1",
    "%Inh": "21%"
  },
  {
    "compound": "Cn1ccc2ncnc(Oc3ccc(NC(=O)Nc4cccc(C(F)(F)F)c4)c(Cl)c3)c21",
    "measured-on": "CLK1",
    "%Inh": "0%"
  },
  {
    "compound": "Cc1nnc(-c2ccc3occ(-c4ccc(S(C)=O)cc4)c3n2)o1 (stereo not drawn)",
    "measured-on": "CLK1",
    "%Inh": "0%"
  },
  {
    "compound": "C[C@@H]1CNc2c(sc3ccc4nc(-c5ccc(O)cc5)ccc4c23)C(=O)N1",
    "measured-on": "CLK1",
    "%Inh": "97.3%"
  },
  {
    "compound": "C[C@@H]1CNc2c(sc3ccc4nc(-c5ccncc5)ccc4c23)C(=O)N1",
    "measured-on": "CLK1",
    "%Inh": "92.9%"
  },
  {
    "compound": "c1ccc(Oc2ccc(Nc3ccnc4ccc(-c5ccccn5)cc34)cc2)cc1",
    "measured-on": "CLK1",
    "%Inh": "14%"
  }
]

###

- Test system: ERK5
- Construct: gene MAPK7
- condition-parameters: concentration: 1 μM,replicates: in singlicate; n = 1

[
  {
    "smi": "CSc1nccc(-c2c(-c3ccc(F)cc3)ncn2CCCN2CCOCC2)n1.Cl",
    "%Inh": "0%"
  },
  {
    "smi": "Cn1ccc2ncnc(Oc3ccc(NC(=O)Nc4cccc(C(F)(F)F)c4)c(F)c3)c21",
    "%Inh": "11%"
  },
  {
    "smi": "Cn1ccc2ncnc(Oc3ccc(NC(=O)Nc4cc(C(C)(C)C)on4)c(Cl)c3)c21",
    "%Inh": "6%"
  },
  {
    "smi": "CCOC(=O)N1CCC(n2cnc(-c3ccc(F)cc3)c2-c2ccnc(N)n2)CC1",
    "%Inh": "0%"
  },
  {
    "smi": "O=C(Nc1cccc(Oc2ccc3nccn3n2)c1)Nc1cccc(C(F)(F)F)c1",
    "%Inh": "2%"
  },
  {
    "smi": "Cn1ccc2ncnc(Oc3ccc(NC(=O)Nc4cncc(C(F)(F)F)c4)c(Cl)c3)c21",
    "%Inh": "0%"
  },
  {
    "smi": "Cl.Cl.NC[C@H](CC1CCCCC1)NC(=O)c1ccc(-c2ccnc3[nH]ccc23)s1",
    "%Inh": "0%"
  },
  {
    "smi": "CN(c1cccc(CNc2nc(Nc3ccc4c(c3)CC(=O)N4)ncc2C(F)(F)F)c1)S(C)(=O)=O",
    "%Inh": "18%"
  }
]

###

- Test system: BIKE
- Construct: gene BMP2K
- condition-parameters: concentration: 1 μM,replicates: in singlicate; n = 1
measured-parameter: %Inh (%)

[
  {
    "smi": "COC(=O)Nc1nc2cc(Oc3ccc(NC(=O)Nc4cc(C(F)(F)F)ccc4Cl)cc3)ccc2[nH]1.Cl",
    "readout-number": 8
  },
  {
    "smi": "NC(=O)Nc1sc(-c2ccc(F)cc2)cc1C(N)=O",
    "readout-number": 98.2
  },
  {
    "smi": "CCCC(=O)Nc1n[nH]c2ncccc12",
    "readout-number": 9
  },
  {
    "smi": "COC(=O)c1cccc(NC(=O)NC2CCN(c3ccnc(NCc4ccc(F)cc4)n3)CC2)c1",
    "readout-number": 13
  },
  {
    "smi": "Cn1ccc2ncnc(Oc3ccc(NC(=O)Nc4cc(C(C)(C)C)on4)c(Cl)c3)c21",
    "readout-number": 0
  }
]

###

- Test system: MET
- condition-parameters: concentration: 1 μM,replicates: in singlicate; n = 1
// reported %Inh per item
measured-parameter: %Inh (%)

[
  {
    "compound": "O=C(Nc1cccc(C(F)(F)F)c1)c1cccc(Oc2ccc3nccn3n2)c1",
    "measured-parameter": "%Inh",
    "output-unit": "%",
    "readout-number": 16
  },
  {
    "compound": "OCCn1cc(-c2cnc3nnn(Cc4ccc5ncccc5c4)c3n2)cn1",
    "measured-parameter": "%Inh",
    "output-unit": "%",
    "readout-number": 79
  },
  {
    "compound": "CN1CCN(CCCNc2nccc(-c3c(-c4ccc(F)cc4)nn4cc(C(N)=O)ccc34)n2)CC1",
    "measured-parameter": "%Inh",
    "output-unit": "%",
    "readout-number": 32
  },
  {
    "compound": "Cn1ccc2ncnc(Oc3ccc(NC(=O)Nc4cncc(C(F)(F)F)c4)c(Cl)c3)c21",
    "measured-parameter": "%Inh",
    "output-unit": "%",
    "readout-number": 12
  },
  {
    "compound": "Cc1cccc2c(-c3ccncc3)c(-c3ccc(F)cc3)nn12.Cl",
    "measured-parameter": "%Inh",
    "output-unit": "%",
    "readout-number": 0
  },
  {
    "compound": "Cl.Cl.NC[C@H](CC1CCCCC1)NC(=O)c1ccc(-c2ccnc3[nH]ccc23)s1",
    "measured-parameter": "%Inh",
    "output-unit": "%",
    "readout-number": 16
  },
  {
    "compound": "COc1ccc(Nc2nccc(N3CCC(NC(=O)c4cccc(C#N)c4)C3)n2)cc1 (centres unmarked)",
    "measured-parameter": "%Inh",
    "output-unit": "%",
    "readout-number": 9
  },
  {
    "compound": "CCn1c(-c2nonc2N)nc2cncc(CNC3CCNCC3)c21.Cl",
    "measured-parameter": "%Inh",
    "output-unit": "%",
    "readout-number": 2
  },
  {
    "compound": "C[C@@H]1CNc2c(sc3ccc4nc(-c5ccc(O)cc5)ccc4c23)C(=O)N1",
    "measured-parameter": "%Inh",
    "output-unit": "%",
    "readout-number": 92.7
  },
  {
    "compound": "CS(=O)(=O)Nc1ccc(-c2ccnc3[nH]ccc23)cc1",
    "measured-parameter": "%Inh",
    "output-unit": "%",
    "readout-number": 2
  },
  {
    "compound": "COc1cc2nccc(Nc3ccc(Oc4ccccc4)cc3)c2cc1OC.Cl",
    "measured-parameter": "%Inh",
    "output-unit": "%",
    "readout-number": 0
  }
]
